Test system: SW-620 colon
Assay: NCI tumour cell line growth inhibition, 48 h; in the data active = GI50 below about 0.43 µM; inactive = the rest
Hi there, use one of these labels in your reply, thanks! 1 for active, -1 for inactive

Call for entry Cc1ncc(C(=O)Nc2ccc(CN3CCN(C)CC3)c(C(F)(F)F)c2)cc1C#Cc1cnc2cccnn12 :
1

How about CC[C@H](Nc1ncnc2nc[nH]c12)c1nc2cccc(F)c2c(=O)n1-c1ccccc1 ?
-1

How about CCCCCCCCCCCCCCCCCC1=NC(C)(C)CN1CC(C)O (centres undefined) ?
-1

How about CC(=O)c1c(C)nc(SSc2nc(C)c(C(C)=O)c(-c3ccc(Cl)cc3)c2C#N)c(C#N)c1-c1ccc(Cl)cc1 ?
-1

How about COC(=O)c1cc2c3ccccc3n3c(=O)c4cc5ccc(N(S(=O)(=O)c6ccc(C)cc6)S(=O)(=O)c6ccc(C)cc6)cc5nc4c(n1)c23 ?
-1

How about COc1cc2nc(SCc3cc(OC)c(OC)c(OC)c3)n(Cc3ccccc3)c(=O)c2cc1OC ?
-1

How about C[C@@H]1C[C@H](C)CN(S(=O)(=O)c2ccc3c(NO)c4ccc(S(=O)(=O)N5C[C@H](C)C[C@H](C)C5)cc4c(N=O)c3c2)C1 ?
1

How about Nc1ccccc1C#C/C=C\C#Cc1ccc(OCCCNC(=O)c2cc3ccccc3[nH]2)cc1 ?
-1

How about O=S(=O)(NC1=NCCN1C(=S)SN1CCn2c1nsc2=S)c1cccc2ccccc12 ?
-1
